Item-by-item account of pEC50
# Test system: T1, human CD24 (human, UniProt P25063 27-59, heavily glycosylated, GPI-anchored (as described in the background))
# T1 construct: whole, on cells; Target of all cell-based FACS assays; also called hCD24; Cluster of differentiation 24
# T1 chain (looked up): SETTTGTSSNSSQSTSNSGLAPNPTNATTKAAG
# Test: FACS, MCF7 cells
pEC50 is a log-scale quantity: -log10 of the concentration expressed in molar.

110D4G4 (antibody, V domains shown, mouse monoclonal antibody; also called mAb-110D4G4) VH: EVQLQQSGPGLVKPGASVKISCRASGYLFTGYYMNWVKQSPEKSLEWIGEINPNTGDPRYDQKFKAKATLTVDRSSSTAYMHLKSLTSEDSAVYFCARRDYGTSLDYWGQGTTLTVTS VL: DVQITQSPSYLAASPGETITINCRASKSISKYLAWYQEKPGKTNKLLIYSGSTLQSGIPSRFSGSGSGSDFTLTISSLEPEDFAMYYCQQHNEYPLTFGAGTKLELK :: 8.28
ch81A1F8-hIgG4 (antibody, V domains shown, chimeric; also called chAb81A1F8; ch81A1F8-IgG4) VH: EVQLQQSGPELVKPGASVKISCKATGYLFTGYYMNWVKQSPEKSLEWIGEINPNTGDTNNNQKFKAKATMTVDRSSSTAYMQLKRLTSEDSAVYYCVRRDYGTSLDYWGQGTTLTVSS VL: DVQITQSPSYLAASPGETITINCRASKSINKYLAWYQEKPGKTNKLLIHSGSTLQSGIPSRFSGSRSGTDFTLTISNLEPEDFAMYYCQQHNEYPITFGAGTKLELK :: 8.64

Could you now look at the following binder, please?
So for 58F10-1F6 (antibody, V domains shown, mouse monoclonal antibody) VH: EVQLRQSGPELVKPGAAVKISCKASGYSFTGYHMNWVKQSPEKSLEWIGEINPITSGITYNQIFKAKATLTVDKSSSTAYLQLKSLTSEDSAVYYCTRRDYGTSLDYWGQGTTLTVSS VL: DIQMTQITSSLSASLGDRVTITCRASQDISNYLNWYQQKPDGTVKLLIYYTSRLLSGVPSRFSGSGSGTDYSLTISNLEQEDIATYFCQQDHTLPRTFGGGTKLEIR , the logged pEC50 turned out to be 7.36
